# Study System: Potassium voltage-gated channel subfamily A member 5 (Homo sapiens)
# Sequence (P22460 whole entry): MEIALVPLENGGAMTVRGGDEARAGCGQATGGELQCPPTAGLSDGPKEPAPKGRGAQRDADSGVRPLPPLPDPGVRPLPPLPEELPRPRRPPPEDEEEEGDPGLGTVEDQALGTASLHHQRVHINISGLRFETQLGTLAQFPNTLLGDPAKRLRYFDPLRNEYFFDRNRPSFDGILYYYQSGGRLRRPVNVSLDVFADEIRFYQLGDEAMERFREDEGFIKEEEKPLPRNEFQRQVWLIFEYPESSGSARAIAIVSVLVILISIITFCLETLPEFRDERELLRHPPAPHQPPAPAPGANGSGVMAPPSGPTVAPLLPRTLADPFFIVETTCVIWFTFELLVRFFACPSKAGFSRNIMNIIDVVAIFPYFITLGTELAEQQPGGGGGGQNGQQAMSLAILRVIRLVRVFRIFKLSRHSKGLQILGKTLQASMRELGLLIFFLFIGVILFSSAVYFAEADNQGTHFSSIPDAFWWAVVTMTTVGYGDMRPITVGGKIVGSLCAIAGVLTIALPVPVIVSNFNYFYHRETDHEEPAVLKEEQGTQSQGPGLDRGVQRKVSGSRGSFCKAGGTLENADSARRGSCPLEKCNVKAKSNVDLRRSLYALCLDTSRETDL
# Assay Notes: Inhibition of human Kv1.5 channel expressed in mouse L929 cells by EP voltage clamp technique
Quantity Measured: pIC50
The read-out pIC50 is expressed as -log10 of concentration in moles per litre.

In the examples that follow, each entry is paired with its recorded pIC50.
{"Molecule": "CC1=C(C(=O)N2CCN(c3ccc(F)cc3)CC2)[C@@H](c2ccc(Cl)c(Cl)c2)n2nccc2N1", "Observed Result": 7.15}
{"Molecule": "COC[C@@H]1CCCN1C(=O)C1=C(C)Nc2ccnn2C1c1ccc(Cl)c(Cl)c1 (stereo not given in full)", "Observed Result": 6.70}
{"Molecule": "CC1=C(C(=O)N2CCCC2)C(c2ccc(Cl)c(Cl)c2)n2nccc2N1 (stereo not given)", "Observed Result": 6.18}
{"Molecule": "CC1=C(C(=O)N2CCN(c3ccc(F)cc3)CC2)C(c2ccc(Cl)cc2Cl)n2nccc2N1 (stereo not given)", "Observed Result": 6.55}

Now for another entry.
Result for CCOC(=O)C1=C(C)Nc2ccnn2C1c1cccc(Cl)c1Cl (stereo not given) , tested on Potassium voltage-gated channel subfamily A member 5 (Homo sapiens), pIC50: 5.96

----------
# Study System: Potassium voltage-gated channel subfamily A member 5 (Homo sapiens)
# Assay Notes: Inhibition of human Kv1.5 channel expressed in Xenopus oocytes at 3 uM by EP voltage clamp technique
# Assay type: cell-based
# Experimental Conditions: Oocyte
Quantity Measured: inhibition (%)
Please respond with the number in % and leave the unit unwritten.

Briefly, inhibition measured for CC1=C(C(=O)N2CCN(c3ccc(F)cc3)CC2)C(c2ccc(C#N)cc2)n2nccc2N1 (centres undefined) : 14

Briefly, inhibition measured for CC1=C(C(=O)N2CCN(C)CC2)C(c2ccc(Cl)c(Cl)c2)n2nccc2N1 (centres undefined) : 5

Briefly, inhibition measured for CC1=C(C(=O)N2CCN(c3ccc(F)cc3)CC2)C(c2ccc(Cl)c(Cl)c2)n2nccc2N1 (centres undefined) : 65

Briefly, inhibition measured for COc1ccc(C2C(C(=O)N3CCN(c4ccc(F)cc4)CC3)=C(C)Nc3ccnn32)cc1 (centres undefined) : 11

Briefly, inhibition measured for COC[C@H]1CCCN1C(=O)C1=C(C)Nc2ccnn2C1c1ccc(Cl)c(Cl)c1 (some centres undefined) : 39

Briefly, inhibition measured for CC1=C(C(=O)N2CCC(c3ccccc3)CC2)C(c2ccc(Cl)c(Cl)c2)n2nccc2N1 (centres undefined) : 59

Briefly, inhibition measured for "CC1=C(C(=O)N2CCN(c3ccc(F)cc3)CC2)[C@@H](c2ccc(Cl)c(Cl)c2)n2nccc2N1" : 72

Briefly, inhibition measured for CC1=C(C(=O)N2CCN(c3ccc(F)cc3)CC2)C(c2sccc2C)n2nccc2N1 (centres undefined) : 29

Briefly, inhibition measured for CC1=C(C(=O)N2CCN(c3ccc(F)cc3)CC2)C(c2cccc(C)c2)n2nccc2N1 (centres undefined) : 57

Briefly, inhibition measured for CC1=C(C(=O)N2CCN(C3CCCCC3)CC2)C(c2ccc(Cl)c(Cl)c2)n2nccc2N1 (centres undefined) : 17

Briefly, inhibition measured for CC1=C(C(=O)N2CCN(c3ccc(F)cc3)CC2)C(c2ccc(Cl)cc2Cl)n2nccc2N1 (centres undefined) : 50

Briefly, inhibition measured for COc1cccc(C2C(C(=O)N3CCN(c4ccc(F)cc4)CC3)=C(C)Nc3ccnn32)c1 (centres undefined) : 30
